# protocolText: Pharmacokinetics in mice
# Assay type: in vivo
# conditionDescription: mouse, whole blood; male C57BI/6 mice, iv 2 mg/kg or oral 10 mg/kg; read-out: Observed clearance
outcomeMeasure: clearance (mL/min/kg)
Your answer is read as mL/min/kg, so omit the unit and give the number.

Can you look up the measured clearance of CN(C)C(=O)c1ccc(Cn2cnccc2=O)cc1 for me?
7.8

----------
# protocolText: Pharmacokinetics in rats
# Type: in vivo
# conditionDescription: rat, whole blood; Sprague Dawley rats, iv 2 mg/kg or oral 10 mg/kg; read-out: Volume of distribution (Vz)
outcomeMeasure: Vd
Please answer in the form of a number followed by its unit of measurement.

Here are 2 compounds together with their reported answers.
substanceSmiles: CNC(=O)c1ccc(Cn2cnccc2=O)cc1
Vd: 1 L/kg
--
substanceSmiles: CN(C)C(=O)c1ccc(Cn2cnccc2=O)cc1
Vd: 0.84 L/kg

Now consider a different compound.
Vd lookup needed for [2H]C([2H])([2H])N(C(=O)c1ccc(Cn2cnccc2=O)cc1)C([2H])([2H])[2H] , thanks.
0.72 L/kg

----------
# system: CYP 2D6 (Homo sapiens)
# Sequence (P10635 whole entry): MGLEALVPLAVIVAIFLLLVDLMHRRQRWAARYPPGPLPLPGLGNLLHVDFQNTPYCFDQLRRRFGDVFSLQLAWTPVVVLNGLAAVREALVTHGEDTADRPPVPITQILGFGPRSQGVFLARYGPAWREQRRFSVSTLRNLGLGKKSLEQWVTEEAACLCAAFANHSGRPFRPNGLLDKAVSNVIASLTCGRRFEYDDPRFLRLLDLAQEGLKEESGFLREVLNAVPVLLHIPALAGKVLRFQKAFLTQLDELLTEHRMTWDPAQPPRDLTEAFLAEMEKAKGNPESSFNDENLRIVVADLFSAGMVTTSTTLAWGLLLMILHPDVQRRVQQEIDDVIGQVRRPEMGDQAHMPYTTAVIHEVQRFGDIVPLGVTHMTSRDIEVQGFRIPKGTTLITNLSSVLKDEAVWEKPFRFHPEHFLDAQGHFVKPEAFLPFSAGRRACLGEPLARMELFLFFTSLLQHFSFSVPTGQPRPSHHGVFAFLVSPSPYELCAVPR
outcomeMeasure: IC50

Notebook: pull reported IC50 for CYP 2D6 (Homo sapiens), entry CN(C)C(=O)c1ccc(Cn2cnccc2=O)cc1
> 50 µM

----------
# protocolText: Pharmacokinetics in mice
# Format: in vivo
# conditionDescription: mouse, whole blood; male C57BI/6 mice, iv 2 mg/kg or oral 10 mg/kg; read-out: Volume of distribution (Vz)
outcomeMeasure: Vd (L/kg)
Please give a number only; it is taken to be in L/kg.

I have this compound here, CN(C)C(=O)c1ccc(Cn2cnccc2=O)cc1 , and I need its recorded Vd.
1.3

----------
# system: CYP 2C9 (Homo sapiens)
# Sequence (P11712 whole entry): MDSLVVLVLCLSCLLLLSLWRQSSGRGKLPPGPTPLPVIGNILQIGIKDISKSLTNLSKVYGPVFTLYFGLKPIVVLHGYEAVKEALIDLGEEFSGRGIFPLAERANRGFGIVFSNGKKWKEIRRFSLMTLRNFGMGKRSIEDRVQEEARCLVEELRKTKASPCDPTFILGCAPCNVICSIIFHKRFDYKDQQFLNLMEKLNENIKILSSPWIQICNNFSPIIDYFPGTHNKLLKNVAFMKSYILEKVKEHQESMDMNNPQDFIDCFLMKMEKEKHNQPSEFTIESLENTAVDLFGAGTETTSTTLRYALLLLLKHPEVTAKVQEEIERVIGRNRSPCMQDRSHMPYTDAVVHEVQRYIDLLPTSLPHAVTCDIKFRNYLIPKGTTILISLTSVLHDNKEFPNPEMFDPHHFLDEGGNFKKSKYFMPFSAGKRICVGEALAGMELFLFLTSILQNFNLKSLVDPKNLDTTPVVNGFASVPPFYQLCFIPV
outcomeMeasure: IC50

Record lookup: for CYP 2C9 (Homo sapiens), what IC50 belongs to CN(C)C(=O)c1ccc(Cn2cnccc2=O)cc1 ?
> 50 µM

----------
# protocolText: Pharmacokinetics in rats
# Assay type: in vivo
# conditionDescription: rat, whole blood; Sprague Dawley rats, iv 2 mg/kg or oral 10 mg/kg; read-out: Half-life in blood (t1/2)
outcomeMeasure: half-life

Worked cases, answers included:
substanceSmiles: CNC(=O)c1ccc(Cn2cnccc2=O)cc1
result: 63 min
//
substanceSmiles: CN(C)C(=O)c1ccc(Cn2cnccc2=O)cc1
result: 55 min

Next item in the queue.
Need half-life, item [2H]C([2H])([2H])N(C(=O)c1ccc(Cn2cnccc2=O)cc1)C([2H])([2H])[2H]
52 min

----------
# system: CYP 1A2 (Homo sapiens, UniProt P05177)
# Sequence (P05177 whole entry): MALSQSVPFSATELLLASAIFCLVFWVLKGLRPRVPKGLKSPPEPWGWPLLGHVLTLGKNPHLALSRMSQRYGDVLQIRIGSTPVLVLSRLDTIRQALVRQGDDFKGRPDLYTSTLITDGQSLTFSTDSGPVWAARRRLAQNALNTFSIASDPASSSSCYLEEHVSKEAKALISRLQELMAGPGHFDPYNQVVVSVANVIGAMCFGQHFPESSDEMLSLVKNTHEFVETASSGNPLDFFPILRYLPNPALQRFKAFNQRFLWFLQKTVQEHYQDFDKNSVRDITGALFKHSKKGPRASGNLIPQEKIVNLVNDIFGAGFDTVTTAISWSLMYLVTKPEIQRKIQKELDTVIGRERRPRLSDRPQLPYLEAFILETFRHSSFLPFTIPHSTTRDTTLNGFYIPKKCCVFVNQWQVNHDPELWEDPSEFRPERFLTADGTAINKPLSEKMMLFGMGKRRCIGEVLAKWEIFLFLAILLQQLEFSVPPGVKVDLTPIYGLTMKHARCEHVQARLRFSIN
pIC50: −log10 of the molar value.
outcomeMeasure: pIC50

Field request: pIC50 | item: CN(C)C(=O)c1ccc(Cn2cnccc2=O)cc1
< 4.30

----------
# protocolText: Plasma protein binding, human plasma (rapid equilibrium dialysis)
# Format: in vitro ADME
# conditionDescription: 37° C.
outcomeMeasure: fraction unbound at 4 h, 5 μM
Give your answer as a number; write no unit.

Data request, read-out fraction unbound at 4 h, 5 μM, for CN(C)C(=O)c1ccc(Cn2cnccc2=O)cc1
0.694

----------
# protocolText: Pharmacokinetics in rats
# Format: in vivo
# conditionDescription: rat, whole blood; Sprague Dawley rats, oral 10 mg/kg, blood
outcomeMeasure: Cmax (ng/mL)
Please respond with the number in ng/mL and leave the unit unwritten.

Look at this compound and give its reported Cmax. CN(C)C(=O)c1ccc(Cn2cnccc2=O)cc1
5330
